- System: kidney cells HEK-293
- Test protocol: proliferation of kidney cells
- Type: cell-based, human
- Setup conditions: 7.8 μM, in vitro, HEK-293, FIG. 5C

| Compound | effect on proliferation of kidney cells |
| --- | --- |
| COc1ccc2[nH]c(CN3CCNCC3)nc2c1 [Compound 5] | no negative effects |
| CS(=O)(=O)NCC#CCN1CCc2ccccc2C1 [Compound 2] | no negative effects |
| CCCCNC(=O)c1c(O)nc2c(C)cccn2c1=O [Compound 6] | no negative effects |
| CC(=O)c1c(C)cn(CC(O)CN2CCNCC2)c1C (stereo not drawn) [Compound 4] | no negative effects |
| CCCCCNC(=O)Cc1cc(=O)[nH]c(=O)[nH]1 [Compound 3] | no negative effects |
| CCC(C)N1CC(=O)C(c2nc3ccccc3[nH]2)=C1N (stereo not drawn) [Compound 1] | no negative effects |
